- experimental.target: Nonstructural protein 5A (Hepatitis C virus)
- test.name: Inhibition of NS5A in HCV genotype 1b infected in HuH7 replicon cells assessed as decrease in viral replication after 3 days by RT-PCR method
- Assay type: cell-based
- experimental.parameters: Hepatitis C virus subtype 1b
parameter: EC90 (pM)
The answer is to be given in pM; state only the numeric part.

Please give the measured EC90 for this compound: `COC(=O)N[C@H](C(=O)N1CCC[C@H]1c1ncc(-c2cc(F)c3c(c2)O[C@@H](c2ccc(C(C)C)s2)n2c-3cc3cc(-c4cnc([C@@H]5CCCN5C(=O)[C@@H](NC(=O)OC)[C@@H]5CCOC(C)(C)C5)[nH]4)ccc32)[nH]1)C(C)C` 5

Please give the measured EC90 for this compound: `CCCc1ncc([C@@H]2Oc3cc(-c4cnc([C@@H]5CCCN5C(=O)[C@@H](NC(=O)OC)C(C)C)[nH]4)cc(F)c3-c3cc4cc(-c5cnc([C@@H]6CCCN6C(=O)[C@@H](NC(=O)OC)[C@@H]6CCOC(C)(C)C6)[nH]5)ccc4n32)s1` 5

Please give the measured EC90 for this compound: COC(=O)N[C@H](C(=O)N1CCC[C@H]1c1ncc(-c2cc(F)c3c(c2)O[C@@H](c2ccc(C4CC4)s2)n2c-3cc3cc(-c4cnc([C@@H]5CCCN5C(=O)[C@@H](NC(=O)OC)C5C[C@@H](C)O[C@H](C)C5)[nH]4)ccc32)[nH]1)C(C)C (stereo partly drawn) 4

Please give the measured EC90 for this compound: COC(=O)N[C@H](C(=O)N1CCC[C@H]1c1ncc(-c2cc(F)c3c(c2)O[C@@H](c2ccc(C4CC4)s2)n2c-3cc3cc(-c4cnc([C@@H]5CCCN5C(=O)[C@@H](NC(=O)OC)C5CCO[C@H](C)C5)[nH]4)ccc32)[nH]1)C(C)C (stereo partly drawn) 4

Please give the measured EC90 for this compound: `CCc1ccc([C@@H]2Oc3cc(-c4cnc([C@@H]5CCCN5C(=O)[C@@H](NC(=O)OC)[C@@H]5CCOC(C)(C)C5)[nH]4)cc(F)c3-c3cc4cc(-c5cnc([C@@H]6CCCN6C(=O)[C@@H](NC(=O)OC)C(C)C)[nH]5)ccc4n32)s1` 67

Please give the measured EC90 for this compound: `CCc1ncc([C@@H]2Oc3cc(-c4cnc([C@@H]5CCCN5C(=O)[C@@H](NC(=O)OC)C(C)C)[nH]4)cc(F)c3-c3cc4cc(-c5cnc([C@@H]6CCCN6C(=O)[C@@H](NC(=O)OC)[C@@H]6CCOC(C)(C)C6)[nH]5)ccc4n32)s1` 5

Please give the measured EC90 for this compound: `COC(=O)N[C@H](C(=O)N1CCC[C@H]1c1ncc(-c2cc(F)c3c(c2)O[C@@H](c2ccc(C(F)F)s2)n2c-3cc3cc(-c4cnc([C@@H]5CCCN5C(=O)[C@@H](NC(=O)OC)C5CCOCC5)[nH]4)ccc32)[nH]1)C(C)C` 6

Please give the measured EC90 for this compound: `COC(=O)N[C@H](C(=O)N1CCC[C@H]1c1ncc(-c2cc(F)c3c(c2)O[C@@H](c2ccc4c(c2)OCCC4)n2c-3cc3cc(-c4cnc([C@@H]5CCCN5C(=O)[C@@H](NC(=O)OC)[C@@H]5CCOC(C)(C)C5)[nH]4)ccc32)[nH]1)C(C)C` 5

# credit: ChEMBL document CHEMBL4177770
